Data provenance is the supplement of paper PMC10724198.

tested on: Saccharomyces cerevisiae; assay: protein stability index of tFT-peptide fusion (C-terminal peptide) (PSI (0-1 scale)); higher = more stable (slower turnover); conditions: genetic background: wild type; temperature: 30 C;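 note: PSI is a weighted mean of sequencing reads over stability bins, variants kept only with over 10 reads, mCherry proximal and sfGFP distal, peptide attached via GGGS linker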
measured-endpoint: protein stability index

stdin: Output protein stability index of `PVFPLTLPAFSS`
stdout: 0.815

stdin: For `LPLLALPLALHP` , write its protein stability index.
stdout: 0.653

stdin: Please give measured protein stability index of the following entry: `PPSPLSRYSPRL`
stdout: 0.754

stdin: # return recorded protein stability index for entry `DLMFSLFPLSFF`
stdout: 0.704

stdin: Quickly give me recorded protein stability index for `PPRHTPTNPPKA`
stdout: 0.677

stdin: Give reported protein stability index value for `LKRPDVTKKKSI`
stdout: 0.62

stdin: Give me measured protein stability index, please, for this sequence: `PSPPSAKLRRTP`
stdout: 0.72

stdin: # return recorded protein stability index for entry `AILGYFSLVEPP`
stdout: 0.542

stdin: Tell me protein stability index reported for `YLLKRSQSLLII`
stdout: 0.5

stdin: Read the entry `SVSVLSPPPLPP` and write its reported protein stability index.
stdout: 0.636

stdin: Indicate the recorded protein stability index value for this sequence: `EPIKEKKKMGSR`
stdout: 0.63
